Origin of the recorded values: PubChem BioAssay (NCI)

# Tested on: MOLT-4 leukemia
# Assay Info: NCI-60 one-dose screen, 48 h (100 = growth as untreated, 0 = no growth, -100 = all killed)
# Experimental Conditions: 10 µM unless noted
About 83,000 compounds went through this panel and 20% of them were active in at least one assay; those are over-represented in the sample as a whole.
In this section, each of the compounds is paired with its reported growth.
Endpoint: growth (%)

[[record]]
compound = "COc1ccc(-c2cc(-c3ccc(N(C)C)cc3)n3c(n2)nc2ccccc23)cc1"
value_observed = 13.8

[[record]]
compound = "C(=N\\Nc1nc(N/N=C/c2ccc3c(c2)OCO3)nc(N2CCCCC2)n1)/c1ccc2c(c1)OCO2"
value_observed = 56.3

[[record]]
compound = "O=C1[C@@H]2Cc3c([nH]c4ccccc34)[C@@H](c3ccc(Cl)cc3)N2C(=O)CN1C1CCN(Cc2ccccc2)CC1"
value_observed = 13.5

[[record]]
compound = "CC1CC(=O)C2=C(C1)Nc1ccc(Br)cc1CC2c1c[nH]c2ccc(Br)cc12 (stereo unspecified)"
value_observed = 35.8

[[record]]
compound = "COc1ccc(OC)c(NC(=O)CCCCCCNC(=O)C(O)(O)C(F)(F)F)c1"
value_observed = 20

[[record]]
compound = "CCN(CC)CCOc1ccc(C(=C(c2ccccc2)C2CCCC2)c2ccc(OCCN(CC)CC)cc2)cc1"
value_observed = 0.859

[[record]]
compound = "CC(=O)Nc1nc(C)c(-c2csc(Nc3ccccc3)n2)s1"
value_observed = 16.6

[[record]]
compound = "C/C(CC1(O)C(=O)Nc2ccccc21)=N\\O (stereo unspecified)"
value_observed = 95.4

[[record]]
compound = "Cc1ccc(/C(N)=N/C(N)=N/c2nc3ccccc3s2)cc1"
value_observed = 75.9

[[record]]
compound = "Clc1ccc2[nH]cc(-c3cncn3CCc3ccc4c(c3)OCO4)c2c1"
value_observed = 60.4

[[record]]
compound = "Cn1ncc2ncc(-c3ccc4ncc(C#N)c(N5CCc6cc(F)c(Cl)cc65)c4c3)cc21"
value_observed = 12.6

[[record]]
compound = "COc1cc(NC(=O)Nc2cccc(-c3cc(=O)c4c(OC)c(OC)c(OC)cc4o3)c2)cc(OC)c1OC"
value_observed = 32.1

[[record]]
compound = "COc1ccc(/C(=N\\N=C(N)N)c2ccc(Cl)cc2)cc1OC"
value_observed = 52.5

[[record]]
compound = "CCCCc1nc2c(N)nc3ccccc3c2n1Cc1cccc(CN)c1"
value_observed = 33.9

[[record]]
compound = "O=C1Nc2ccccc2/C1=N\\c1nnc(-c2ccccc2)o1"
value_observed = 96.7

[[record]]
compound = "Cc1ccc(NC2=C(Cl)C(=O)c3nc(C)ccc3C2=O)c(C)c1"
value_observed = 1.38

[[record]]
compound = "O=S(=O)(Oc1ccc(-c2cn3ccsc3n2)cc1)c1cccc(C(F)(F)F)c1"
value_observed = 97.6

[[record]]
compound = "Brc1cccc(-c2cc(-c3ccc4c(c3)OC=CO4)[nH]n2)c1"
value_observed = 29.2

[[record]]
compound = "O=C(CSc1nc2ccccc2c(=O)n1-c1ccc(Cl)c(Cl)c1)Nc1ccc(S(=O)(=O)Nc2ccc(Cl)nn2)cc1"
value_observed = 97.2

[[record]]
compound = "O=C(O)c1ccc(-n2c(=O)n(-c3cccc(C(F)(F)F)c3)c(=O)c3cc(-c4ccc(F)cc4F)ccc32)cc1"
value_observed = 4.7

[[record]]
compound = "N#Cc1nc(-c2ccc(Cl)cc2)oc1N1CCC(S(=O)(=O)N2CCOCC2)CC1"
value_observed = 104

[[record]]
compound = "O=C(COc1ccc(/C=C2\\C(=O)Nc3ccc(F)cc32)cc1)Nc1ccccc1"
value_observed = 99.2

[[record]]
compound = "O=C1C(SCc2ccccc2)=C(Cl)CN1c1ccccc1"
value_observed = 84.3

[[record]]
compound = "Cn1c(SCC(=O)c2ccco2)nc2ccccc2c1=O"
value_observed = 96

[[record]]
compound = "CC1=C(C)C(=O)C(Nc2cccc(C)c2)=C(Br)C1=O"
value_observed = -29.9

[[record]]
compound = "C=C(C)[C@@H]1CC[C@]2(C(=O)NC3CCCCC3)CC[C@]3(C)[C@H](CC[C@@H]4[C@@]5(C)CC[C@H](N)C(C)(C)[C@@H]5CC[C@]43C)[C@@H]12"
value_observed = 64.5

[[record]]
compound = "O=C(CSc1nnc(-c2cccs2)n1-c1ccccc1)Nc1ccccc1"
value_observed = 93.6

[[record]]
compound = "CN1CCN(Cc2ccc(/C=N/Nc3ccnc4cc(Cl)ccc34)cc2)CC1"
value_observed = 63.1

[[record]]
compound = "Fc1cccc(Cl)c1/C=N/Nc1nc(N/N=C/c2c(F)cccc2Cl)nc(N2CCCCC2)n1"
value_observed = 13.7

[[record]]
compound = "CN1CCN(c2ccc(Nc3nc(NCCCNS(=O)(=O)c4cccc(F)c4)c4sccc4n3)cc2)CC1"
value_observed = 13.3

[[record]]
compound = "COc1ccc(/C=N/N=C(/c2ccccc2)c2ccc3nc(-c4ccc(Cl)cc4)[nH]c3c2)cc1"
value_observed = 53.2

